biological target: Membrane-associated guanylate kinase, WW and PDZ domain-containing protein 3 (Homo sapiens, UniProt Q5TCQ9); assay: Dissociation constant for binding to MAGI-3 PDZ2 domain
VALUE_KIND: Kd (µM)

I. H-PFDEDQHTQITWV-OH
II. H-PFDEDQHTQITKV-OH
Problem: Out of I and II , name the one with the higher Kd. Answer format: the label of the selected item.
Solution: II

---

Target: Membrane-associated guanylate kinase, WW and PDZ domain-containing protein 3 (Homo sapiens)
Sequence (Q5TCQ9 whole entry): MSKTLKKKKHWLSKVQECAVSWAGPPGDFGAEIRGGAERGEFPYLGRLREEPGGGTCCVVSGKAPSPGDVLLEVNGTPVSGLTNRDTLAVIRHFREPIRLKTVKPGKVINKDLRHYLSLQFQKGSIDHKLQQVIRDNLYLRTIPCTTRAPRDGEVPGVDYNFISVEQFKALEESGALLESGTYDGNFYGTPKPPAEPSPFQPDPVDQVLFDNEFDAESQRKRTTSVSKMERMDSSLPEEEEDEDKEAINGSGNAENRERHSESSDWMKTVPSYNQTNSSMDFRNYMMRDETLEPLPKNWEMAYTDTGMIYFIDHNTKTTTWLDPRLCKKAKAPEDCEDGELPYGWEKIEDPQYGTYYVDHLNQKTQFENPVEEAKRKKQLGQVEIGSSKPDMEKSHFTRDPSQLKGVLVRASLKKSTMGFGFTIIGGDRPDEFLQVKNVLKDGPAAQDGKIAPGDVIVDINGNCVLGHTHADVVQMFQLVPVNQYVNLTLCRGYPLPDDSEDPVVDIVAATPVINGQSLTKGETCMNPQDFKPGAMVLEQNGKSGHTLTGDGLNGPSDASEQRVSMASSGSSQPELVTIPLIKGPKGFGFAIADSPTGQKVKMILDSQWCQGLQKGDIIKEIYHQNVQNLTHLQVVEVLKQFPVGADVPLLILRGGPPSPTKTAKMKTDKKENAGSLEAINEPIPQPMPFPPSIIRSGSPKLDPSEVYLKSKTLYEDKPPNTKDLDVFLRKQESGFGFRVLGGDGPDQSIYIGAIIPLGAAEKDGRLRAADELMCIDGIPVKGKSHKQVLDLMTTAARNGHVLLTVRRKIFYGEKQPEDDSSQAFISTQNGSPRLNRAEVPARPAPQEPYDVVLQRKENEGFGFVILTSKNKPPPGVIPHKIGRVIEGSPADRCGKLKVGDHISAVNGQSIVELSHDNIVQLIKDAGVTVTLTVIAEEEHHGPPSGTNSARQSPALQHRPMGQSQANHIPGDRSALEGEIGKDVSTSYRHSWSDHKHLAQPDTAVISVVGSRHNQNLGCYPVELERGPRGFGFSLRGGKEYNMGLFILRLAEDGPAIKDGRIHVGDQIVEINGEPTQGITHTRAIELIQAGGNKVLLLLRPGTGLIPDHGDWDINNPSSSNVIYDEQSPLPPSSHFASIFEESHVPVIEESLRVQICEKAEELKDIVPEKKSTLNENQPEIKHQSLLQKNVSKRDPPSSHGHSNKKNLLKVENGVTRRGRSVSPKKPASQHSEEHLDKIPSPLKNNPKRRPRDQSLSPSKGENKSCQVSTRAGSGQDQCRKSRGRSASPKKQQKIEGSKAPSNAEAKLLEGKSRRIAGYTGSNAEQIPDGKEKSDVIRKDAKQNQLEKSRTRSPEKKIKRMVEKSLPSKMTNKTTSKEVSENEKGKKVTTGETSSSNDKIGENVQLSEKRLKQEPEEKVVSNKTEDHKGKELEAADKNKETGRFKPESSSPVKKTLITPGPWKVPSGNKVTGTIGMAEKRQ
Assay: Inhibitory concentration for MAGI-3 PDZ2 domain; ND denotes not detected
Numbered stars: 1 amine (or outer) side, 2 acyl side, 3 side chain; on linkers, the order of the positions; unused ones are H or OH. Square brackets hold non-standard residues; d marks the D form. Peptide text beside a SMILES is read from it. * marks the point of attachment. X2 = C[C@@H](O)[C@H](O)[C@H](N[*:1])C(=O)[*:2]; X1 = O=C([C@@H](N[*:1])[C@@H](O)CCO)[*:2]; NMeV = CN[C@H](C(=O)O)C(C)C; Valol = CC(C)[C@@H](CO)N*
VALUE_KIND: IC50

Would you please look over these solved cases?
Problem: Item CCC(O)[C@H](O)C(NC(=O)[C@@H](NC(=O)[C@H](CCC(N)=O)NC(=O)[C@@H](NC(C)=O)[C@@H](C)O)[C@@H](C)CC)C(=O)N[C@@H](Cc1c[nH]c2ccccc12)C(=O)N[C@H](C(=O)O)C(C)C (single isomer, unassigned) has what recorded IC50?
Solution: Not detected

Problem: CC[C@H](C)[C@H](NC(=O)[C@H](CCC(N)=O)NC(=O)[C@@H](NC(C)=O)[C@@H](C)O)C(=O)N[C@H](C(=O)N[C@@H](Cc1c[nH]c2ccccc12)C(=O)N[C@H](C(=O)O)C(C)C)[C@@H](O)CCO (Ac-TQI[X1]WV-OH) , same question.
Solution: Not detected

Problem: Again, but for CC[C@H](C)[C@H](NC(=O)[C@H](CCC(N)=O)NC(=O)[C@@H](NC(C)=O)[C@@H](C)O)C(=O)N[C@H](C(=O)N[C@@H](Cc1c[nH]c2ccccc12)C(=O)N(C)[C@H](C(=O)O)C(C)C)[C@@H](C)O (Ac-TQITW[NMeV]-OH)
Solution: Not detected

Problem: Continue with CC[C@H](C)[C@H](NC(=O)[C@H](CCC(N)=O)NC(=O)[C@@H](NC(C)=O)[C@H](C)O)C(=O)NC(C(=O)N[C@@H](Cc1c[nH]c2ccccc12)C(=O)N[C@H](C(=O)O)C(C)C)[C@@H](O)C(C)(C)O (single isomer, unassigned)
Solution: Not detected

Problem: Please answer likewise for CC[C@H](C)[C@H](NC(=O)[C@H](CCC(N)=O)NC(=O)[C@@H](NC(C)=O)[C@@H](C)O)C(=O)N[C@H](C(=O)N[C@@H](Cc1c[nH]c2ccccc12)C(=O)N[C@H](C(=O)O)C(C)C)[C@@H](O)[C@@H](C)O (Ac-TQI[X2]WV-OH)
Solution: Not detected

Here's the next entry for you.
Problem: Which IC50 is reported for this molecule? CC[C@H](C)[C@H](NC(=O)[C@H](CCC(N)=O)NC(=O)[C@@H](NC(C)=O)[C@@H](C)O)C(=O)N[C@H](C(=O)N[C@@H](Cc1c[nH]c2ccccc12)C(=O)N[C@H](CO)C(C)C)[C@@H](C)O (Ac-TQITW-Valol)
Solution: Not detected

Source of measurements: ChEMBL document CHEMBL1135310
